Listing of entries alongside the reported GLUR EC50 (nM), cAMP formation in HEK293 cells expressing human Glucagon-R.
SYSTEM: human glucagon receptor (human, UniProt P47871 26-477)
ASSAY_SUMMARY: cell-based or functional assay
Numbered stars: 1 amine (or outer) side, 2 acyl side, 3 side chain; on linkers, the order of the positions; unused ones are H or OH. Side chains are listed from the residue outwards. Ends that are not written are not given here. * marks the point of attachment. γGlu = O=C(O)[C@H](CCC(=O)[*:2])N[*:1]; Palmitoyl = CCCCCCCCCCCCCCCC(=O)*
Unit nM implied. Number only.

Task: Determine from records and report GLUR EC50 (nM), cAMP formation in HEK293 cells expressing human Glucagon-R for H-HSQGTFTSDYSKYLDSKAAQDFVEWLLRA-NH2 [L006-0171]
Output: 0.78

Task: Determine from records and report GLUR EC50 (nM), cAMP formation in HEK293 cells expressing human Glucagon-R for H-HSQGTFTSDYSKYLDSKAAQDFVQWLMNT-NH2 [ZP2667]
Output: 0.07

Task: Determine from records and report GLUR EC50 (nM), cAMP formation in HEK293 cells expressing human Glucagon-R for H-HSQGTFTSDYSKYLDSKAAHDFVEWLMNT-NH2 [L006-0176]
Output: 0.57

Task: Determine from records and report GLUR EC50 (nM), cAMP formation in HEK293 cells expressing human Glucagon-R for H-HSQGTFTSDYSKYLDSLAAQDFVQWLLNT-NH2 [ZP2753]
Output: 0.08

Task: Determine from records and report GLUR EC50 (nM), cAMP formation in HEK293 cells expressing human Glucagon-R for HSQGTFTSDYSKYLDSK([γGlu-Palmitoyl])AAHDFVEWLLRA-NH2 [ZP2872]
Output: 0.085
